Assay: Size distribution, polydispersity and Z-potential of LNPs by dynamic light scattering (Malvern Zetasizer)
Format: physicochemical
Details: LNPs, standard formulation 50:10:38.5:1.5; DLS
Measure: P.D.I.

{"columns": ["Molecule", "P.D.I."],
 "data": [
  ["CCCCCCCC#CCOC(=O)CCSCCC(C(=O)NC1CCN(C)CC1)C(=O)OC(CCCCCCCC)CCCCCCCC (stereo not shown) [VC-LC-0442]", 0.12]
]}

(A) CCCCCCCCC(CCCCCCCC)OC(=O)C(CSCCC(=O)OCCCCCC)CC(=O)NCCCn1ccnc1 (stereo not shown) [VC-LC-0306]
(B) CCCCCCCCCCC(CCCCCCCC)C(=O)NC(CCSCCC(=O)OCCCCCCCC(C)C)C(=O)NCC1CCN(C)CC1 (stereo not shown) [VC-LC-0509]
Response body: label of entry with the larger P.D.I.; valid values A , B . Write down the label attached to your selection.
B

----------
Assay: Size distribution, polydispersity and Z-potential of LNPs by dynamic light scattering (Malvern Zetasizer)
Format: physicochemical
Conditions: LNPs, standard formulation 50:10:38.5:1.5; DLS
Measure: P.D.I.

# count of solved cases: 3
{"columns": ["Molecule", "P.D.I."],
 "data": [
  ["CCCCCCCCCCCCOC(=O)CCSCCC(NC(=O)C(CCCCCC)CCCCCCCC)C(=O)NCCN1CCN(C)CC1 (centres unmarked)", 0.22],
  ["CCCCCCCCCCCCCCCCOC(=O)CCSCCC(NC(=O)C(CCCCCC)CCCCCCCC)C(=O)NCCCn1ccnc1 (centres unmarked)", 0.13],
  ["CCCCCCCCC(CCCCCCCC)OC(=O)C(CSCCC(=O)OCCCCCC(C)C)CC(=O)NCCCn1ccnc1 (centres unmarked)", 0.13]
]}

(a) CCCCCCCCC(CCCCCC)C(=O)NC(CCSCCC(=O)OCC(CC)CCCC)C(=O)NCCCN(CCO)CCO (centres unmarked)
(b) CCCCCCCCC(CCCCCC)C(=O)NC(CCSCCC(=O)OCCCCCC)C(=O)NCCCn1ccnc1 (centres unmarked)
Response body: label of entry with the larger P.D.I.; valid values a , b . Write down the label attached to your selection.
a

(I) CCCCCCCCC(CCCCCC)COC(=O)CCSCCC(C(=O)NCCCN1CCOCC1)C(=O)OCC(CCCCCC)CCCCCCCC (centres unmarked)
(II) CCCCCCCCOC(=O)CCSCCC(NC(=O)C(CCCCCC)CCCCCCCC)C(=O)NCCN1CCN(C)CC1 (centres unmarked)
Response body: label of entry with the larger P.D.I.; valid values I , II . Write down the label attached to your selection.
I

(a) CCCCCCCCC(CCCCCC)COC(=O)C(CCSCCC(=O)OCC(CC)CCCC)C(=O)NCCCN1CCOCC1 (centres unmarked)
(b) CCCCCCCCCCCCCCCCCC(=O)NC(CCSCCC(=O)OCC(CCCCCC)CCCCCCCC)C(=O)NC1CCN(C)CC1 (centres unmarked)
# compare P.D.I. for a vs b ; return the one with the smaller value Write down the label attached to your selection.
b

----------
Experiment: RNA encapsulation efficiency of LNPs by Quant-IT Ribogreen
Assay type: physicochemical
Conditions: Table 8; LNP 50:10:38.5:1.5, luciferase mRNA
Measure: Encaps. efficiency (%)

# count of solved cases: 5
{"columns": ["Compound", "Measure", "Unit of measure", "Measured"],
 "data": [
  ["CCCCCCCCCCC(CCCCCCCC)C(=O)NC(CCSCCC(=O)OCC(CCCCCC)CCCCCCCC)C(=O)NC1CCN(C)CC1 (stereo not shown) [VC-LC-0557]", "Encaps. efficiency", "%", 77.2],
  ["CCCCCCCC/C=C\\CCCCCCCC(=O)NC(CCSCCC(=O)OCC(CCCCCCCCCC)CCCCCCCCCCCC)C(=O)NC1CCN(C)CC1 (stereo not shown) [VC-LC-0356]", "Encaps. efficiency", "%", 68.3],
  ["CCCCCCCCCCCCC(CCCCCCCCCC)COC(=O)CCSCCC(NC(=O)C(CCCCCC)CCCCCCCC)C(=O)NCCN(CC)CC (stereo not shown) [VC-LC-0487]", "Encaps. efficiency", "%", 62.43],
  ["CCCCCCCCCCCCCOC(=O)CCSCCC(NC(=O)C(CCCCCCCC)CCCCCCCCCC)C(=O)NCC1CCN(C)CC1 (stereo not shown) [VC-LC-0507]", "Encaps. efficiency", "%", 95.2],
  ["CCCCCCCCCCCCCCCCCCOC(=O)CCSCCC(NC(=O)C(CCCCCC)CCCCCCCC)C(=O)NC1CCN(C)CC1 (stereo not shown) [VC-LC-0215]", "Encaps. efficiency", "%", 58.3]
]}

(a) CCCCCCCCCCCCOC(=O)CCSCCC(C(=O)NC1CCN(C)CC1)C(=O)OC(CCCCCCCC)CCCCCCCC (stereo not shown) [VC-LC-0440]
(b) CCCCCCCCOC(=O)CCSCC(CC(=O)NCCCn1ccnc1)C(=O)OC(CCCCCCCC)CCCCCCCC (stereo not shown) [VC-LC-0307]
Response body: label of entry with the larger Encaps. efficiency; valid values a , b . Write down the label attached to your selection.
a
(a: 76.5%, b: 43.9%)
